Recorded values, source PubChem BioAssay (NCATS).

# assay_overview: BET inhibitor-based combinations targeting novel dependencies in MECOM-rearranged (r) AML: OCI-AML3 cell line (AID 2202232); further: nearly all actives have a fitted effect of over 35% in size
# particulars: CellTiter-Glo luminescence, 48 h; OCI-AML3 viability; series mostly up to 46 µM
Records with an inconclusive call do not appear. Active and inactive are the calls of the source. The call rests on the fitted dose curve; in most records, active means well fitted inhibition curve with a large enough effect; inconclusive means small, poorly fitted or top-dose-only effect; inactive means no such curve, though single readings can be large or run the other way.
Thanks in advance; please answer with one of these: Y for active, N for inactive

Task: Which outcome was assigned to `COc1cc(C(=O)N2CCC(N3CCN(C)CC3)CC2)ccc1Nc1ncc2c(n1)N(C)c1ccccc1C(=O)N2C` in this test?
Output: Y

Task: Please do the same for `O=C(Nc1cccc(Cl)c1)Nc1ncc(CCNc2ncnc3ccsc23)s1` as well.
Output: Y

Task: Please do the same for Cc1ccccc1C(C(=O)NC1CCCCC1)N(C(=O)CNc1ccc(C#N)cc1)c1cccc(F)c1 (configuration not stated) as well.
Output: N

Task: Please do the same for `C#C[C@]1(O)CC[C@H]2[C@@H]3CCc4cc(OC)ccc4[C@H]3CC[C@@]21C` as well.
Output: N

Task: Please do the same for `O=C(/C=C/C#Cc1cccc(NS(=O)(=O)c2ccccc2)c1)NO` as well.
Output: Y

Task: Please do the same for `CCN(CC)Cc1ccc2cc(COC(=O)Nc3ccc(C(=O)NO)cc3)ccc2c1` as well.
Output: Y

Task: Please do the same for `O=C(NCc1cccc(O)c1)Nc1nc(-c2ccncc2)cs1` as well.
Output: Y

Task: Please do the same for `Nc1ccccc1NC(=O)c1ccc(CNC(=O)OCc2cccnc2)cc1` as well.
Output: Y

Task: Please do the same for `CC(=O)NCCC(=O)N[C@@H](CCC(N)=O)C(=O)N[C@@H](CO)C(=O)N[C@@H](CCC(N)=O)C(=O)N[C@@H](CCC(N)=O)C(=O)N[C@H](C(=O)N[C@@H](Cc1ccccc1)C(=O)N[C@]1(C)CCCCCCC=CCCC[C@@](C)(C(=O)N[C@@H](CCC(N)=O)C(=O)N[C@@H](CC(N)=O)C(N)=O)NC(=O)[C@H](CC(C)C)NC(=O)[C@H](CC(C)C)NC(=O)[C@@H](CCCNC(=N)N)NC(=O)[C@H](Cc2c[nH]c3ccccc23)NC(=O)[C@H](CC(C)C)NC(=O)[C@H](CC(N)=O)NC1=O)[C@H](C)O` as well.
Output: N

Task: Please do the same for `NC[C@H]1O[C@H](O[C@@H]2[C@@H](O)[C@@H](O[C@H]3O[C@H](CO)[C@@H](O)[C@H](N)[C@@H]3O)[C@H](N)C[C@@H]2N)[C@H](O)[C@@H](O)[C@H]1O` as well.
Output: N

Task: Please do the same for `CN(NC(=O)CC(=O)NN(C)C(=S)c1ccccc1)C(=S)c1ccccc1` as well.
Output: Y

Task: Please do the same for `Oc1ccc(-c2ccc(-c3cc(Nc4cccc(CNC5CC5)c4)n[nH]3)cc2)c(O)c1` as well.
Output: Y

Task: Please do the same for CC[C@@H](C)Nc1cc(C(=O)NC2CC3CCC(C2)N3c2ccc(C(=O)C3CC3)cn2)c(C)cc1C(N)=O (some centres not stated) as well.
Output: Y

Task: Please do the same for Nc1cccc2c1C(=O)N(C1CCC(=O)NC1=O)C2=O (configuration not stated) as well.
Output: N

Task: Please do the same for `Cc1cc(Nc2ncc(Cl)c(Nc3ccccc3S(=O)(=O)C(C)C)n2)c(OC(C)C)cc1C1CCNCC1` as well.
Output: Y

Task: Please do the same for `CO[C@@H]1[C@H](N(C)C(=O)c2ccccc2)C[C@H]2O[C@]1(C)n1c3ccccc3c3c4c(c5c6ccccc6n2c5c31)C(=O)NC4` as well.
Output: Y

Task: Please do the same for `COc1cc2c(Oc3ccc(-c4cnc(Nc5ccc(F)cc5)n(C)c4=O)cc3F)ccnc2cc1OCCCN1CCOCC1` as well.
Output: Y
